Form field: EC50 (one value per entry).
Target Or Test System: rat mGluR4 (Rattus norvegicus, UniProt P31423)
Sequence (P31423 33-912): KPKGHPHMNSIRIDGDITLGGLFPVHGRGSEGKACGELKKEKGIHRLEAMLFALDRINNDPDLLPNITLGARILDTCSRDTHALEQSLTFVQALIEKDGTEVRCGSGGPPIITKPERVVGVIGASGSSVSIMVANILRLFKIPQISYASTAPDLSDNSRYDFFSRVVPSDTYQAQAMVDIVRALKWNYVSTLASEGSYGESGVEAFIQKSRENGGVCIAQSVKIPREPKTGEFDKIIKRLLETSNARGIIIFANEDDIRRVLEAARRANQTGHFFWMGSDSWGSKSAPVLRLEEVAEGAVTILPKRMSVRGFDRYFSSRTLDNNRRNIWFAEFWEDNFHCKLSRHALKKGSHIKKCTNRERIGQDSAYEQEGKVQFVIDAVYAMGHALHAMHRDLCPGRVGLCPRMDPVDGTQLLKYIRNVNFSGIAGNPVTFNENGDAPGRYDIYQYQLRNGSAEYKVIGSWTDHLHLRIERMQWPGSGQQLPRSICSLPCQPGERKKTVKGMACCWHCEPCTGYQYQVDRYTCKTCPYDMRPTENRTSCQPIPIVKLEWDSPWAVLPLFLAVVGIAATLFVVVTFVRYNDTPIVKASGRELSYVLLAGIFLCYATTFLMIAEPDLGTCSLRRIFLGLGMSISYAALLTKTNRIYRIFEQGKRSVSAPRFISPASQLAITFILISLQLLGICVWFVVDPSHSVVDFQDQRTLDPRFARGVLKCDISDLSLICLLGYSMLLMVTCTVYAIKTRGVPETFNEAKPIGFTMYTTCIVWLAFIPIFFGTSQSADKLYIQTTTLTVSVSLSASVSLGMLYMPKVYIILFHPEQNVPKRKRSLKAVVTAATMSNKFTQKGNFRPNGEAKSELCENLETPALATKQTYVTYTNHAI
Experiment Notes: rat mGluR4/GIRK thallium flux assay
Format: cell-based
Quick note: give the figure in µM, leave out the unit.

Molecule	Target Or Test System	EC50, µM
O=C(O)C1CCCCC1C(=O)Nc1cc(Cl)cc(Cl)c1 (centres unmarked) [Compound 2h]	rat mGluR4 (Rattus norvegicus, UniProt P31423)	0.56

Challenge: Tell me EC50 reported for N[C@@H](CCC(=O)O)C(=O)O [glutamate, L-glutamate, reference compound]
Response given: 9.2

----------
Target Or Test System: rat mGluR4 (Rattus norvegicus, UniProt P31423)
Experiment Notes: rat mGluR4/GIRK thallium flux assay
Assay type: cell-based
Test Context: read-out: potency at rat mGluR4 (GIRK assay); potentiation of EC20 glutamate
Value Kind: EC50 (nM)
Quick note: give the figure in nM, leave out the unit.

Challenge: Tell me EC50 reported for O=C(Nc1cc(Cl)cc(Cl)c1)[C@H]1CCCC[C@H]1C(=O)O (racemic)
Response given: 693
